# TARGET UNDER TEST: UniProt P81908
Lab note: anything with IC50 below 5 µM is marked satisfied; values at 5 µM or higher are marked not satisfied.

# INPUT SMILES, CLASS ASSIGNMENT
data = [
    ("Oc1ccc(-c2nc3cc(Cl)ccc3[nH]2)cc1", "not satisfied"),
    ("Clc1ccc2[nH]c(-c3ccc(OCCN4CCOCC4)cc3)nc2c1", "not satisfied"),
    ("CC(C)N(CCOc1ccc(-c2nc3ccc(Cl)cc3[nH]2)cc1)C(C)C", "not satisfied"),
    ("Cc1ccc2[nH]c(-c3ccc(OCCN4CCOCC4)cc3)nc2c1", "not satisfied"),
    ("c1ccc2[nH]c(-c3ccc(OCCN4CCCCC4)cc3)nc2c1", "satisfied"),
    ("c1ccc2[nH]c(-c3ccc(OCCN4CCOCC4)cc3)nc2c1", "not satisfied"),
    ("Clc1ccc2[nH]c(-c3ccc(OCCN4CCCC4)cc3)nc2c1", "satisfied"),
]

###

# ASSAY: Selectivity ratio of IC50 for horse serum BChE to IC50 for electric eel AChE
Record 1 whenever Ratio IC50 is at 0.6 or higher; record 0 when lower.

# INPUT SMILES, CLASS ASSIGNMENT
rows = [
    ("Clc1ccc2[nH]c(-c3ccc(OCCN4CCCC4)cc3)nc2c1", 1),
    ("CCN(CC)CCOc1ccc(-c2nc3cc(C)ccc3[nH]2)cc1", 1),
    ("CC(C)N(CCOc1ccc(-c2nc3ccccc3[nH]2)cc1)C(C)C", 1),
    ("c1ccc2[nH]c(-c3ccc(OCCN4CCCC4)cc3)nc2c1", 1),
    ("CN(C)CCOc1ccc(-c2nc3ccccc3[nH]2)cc1", 0),
    ("CC(C)N(CCOc1ccc(-c2nc3cc(Cl)ccc3[nH]2)cc1)C(C)C", 1),
    ("CCN(CC)CCOc1ccc(-c2nc3ccccc3[nH]2)cc1", 0),
    ("c1ccc2[nH]c(-c3ccc(OCCN4CCCCC4)cc3)nc2c1", 1),
    ("Cc1ccc2[nH]c(-c3ccc(O)cc3)nc2c1", 0),
    ("Cc1ccc2[nH]c(-c3ccc(OCCN4CCCC4)cc3)nc2c1", 1),
    ("Oc1ccc(-c2nc3ccccc3[nH]2)cc1", 0),
    ("Cc1ccc2[nH]c(-c3ccc(OCCN4CCCCC4)cc3)nc2c1", 1),
]

###

# TARGET UNDER TEST: Cholinesterase (Equus caballus, UniProt P81908)
# Sequence (P81908 whole entry): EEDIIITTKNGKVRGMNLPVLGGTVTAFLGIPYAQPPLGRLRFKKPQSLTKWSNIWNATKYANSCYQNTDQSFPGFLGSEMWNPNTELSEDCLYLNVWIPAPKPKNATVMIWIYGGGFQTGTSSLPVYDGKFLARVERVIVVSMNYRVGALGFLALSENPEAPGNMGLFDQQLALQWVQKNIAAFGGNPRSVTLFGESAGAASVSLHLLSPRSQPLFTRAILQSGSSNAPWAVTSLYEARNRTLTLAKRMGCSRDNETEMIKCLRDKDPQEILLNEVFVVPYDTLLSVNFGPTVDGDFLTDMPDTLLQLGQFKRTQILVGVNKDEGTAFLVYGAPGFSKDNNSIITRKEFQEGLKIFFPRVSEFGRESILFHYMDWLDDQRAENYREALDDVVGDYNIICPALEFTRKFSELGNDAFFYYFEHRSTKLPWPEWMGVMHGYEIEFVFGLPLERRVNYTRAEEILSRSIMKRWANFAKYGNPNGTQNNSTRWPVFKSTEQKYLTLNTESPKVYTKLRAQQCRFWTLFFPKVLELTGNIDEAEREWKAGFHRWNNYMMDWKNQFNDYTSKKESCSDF
Recorded IC50 for the following molecules
MEASURED QUANTITY: IC50 (µM)

# INPUT SMILES, MODIFIER SIGN, DATA VALUE
measured = [
    ("CC(C)N(CCOc1ccc(-c2nc3ccccc3[nH]2)cc1)C(C)C", "=", 4.11),
    ("Clc1ccc2nc(-c3ccc(OCCN4CCCCC4)cc3)[nH]c2c1", ">", 100),
    ("Oc1ccc(-c2nc3ccccc3[nH]2)cc1", "=", 4.59),
    ("Cc1ccc2[nH]c(-c3ccc(O)cc3)nc2c1", "=", 4.67),
    ("CCN(CC)CCOc1ccc(-c2nc3ccc(C)cc3[nH]2)cc1", "=", 6.48),
    ("CN(C)CCOc1ccc(-c2nc3ccc(Cl)cc3[nH]2)cc1", ">", 100),
]
